Test system: 885512-296-R-J2-PDC complex spheroid viability
Test: Anticancer human tumor 885512-296-R-J2-PDC patient-derived breast carcinoma cell line growth inhibition [GQUAD]; active means viability on the fitted dose curve at most 10% of control; inactive means the rest
Conditions: second compound 0.0316 µM; first compound 0.0316 µM
Text: DNA G-quadruplex Stabilizer Agents in Combinations in Complex Spheroids A high-throughput screen of multi-cell type tumor spheroids was designed to identify active combinations of DNA G-quadruplex stabilizer agents and targeted small molecules. […] Compounds. […] If the clinical Cmax for an agent had not been determined, the highest concentration tested was 10 microM. […]
Please reply with one of these outcomes: class 1 (active), class 0 (inactive)

MOLECULE: Cc1[nH]c2ccccc2c1CCNCc1ccc(/C=C/C(=O)NO)cc1 + CN(C)c1ccc(Nc2c3ccc(NC(=O)CCN4CCCC4)cc3nc3cc(NC(=O)CCN4CCCC4)ccc23)cc1
LABEL: class 0

Query: Returns: the outcome recorded for CCc1c2c(nc3ccc(O)cc13)-c1cc3c(c(=O)n1C2)COC(=O)[C@]3(O)CC + CN(C)c1ccc(Nc2c3ccc(NC(=O)CCN4CCCC4)cc3nc3cc(NC(=O)CCN4CCCC4)ccc23)cc1 in this assay.
Result: class 1

Query: Returns: the outcome recorded for COc1ccc([C@@H](O)c2cc(-c3ncnc4cc(N5CCOCC5)ccc34)c(F)cc2Cl)nn1 + CN(C)c1ccc(Nc2c3ccc(NC(=O)CCN4CCCC4)cc3nc3cc(NC(=O)CCN4CCCC4)ccc23)cc1 in this assay.
Result: class 0

Query: Returns: the outcome recorded for COc1ncnc(C2CC2)c1-c1ncc2cnn(Cc3ccc(-c4nc(C(F)(F)F)cn4C(C)C)cc3)c2n1 + Cc1cnc(CNC(=O)c2c(=O)c3ccc(N4CCCN(C)CC4)nc3n3c2sc2ccccc23)cn1 in this assay.
Result: class 0

Query: Returns: the outcome recorded for C#Cc1c(F)ccc2cc(O)cc(-c3ncc4c(N5CC6CCC(C5)N6)nc(OCC56CCCN5CC(F)C6)nc4c3F)c12 (stereo not given) + Cc1[nH]c2ccc(F)cc2c1-c1nc2c3cccnc3c3ncccc3c2[nH]1 in this assay.
Result: class 0

###

system: 885512-296-R-J2-PDC complex spheroid viability; assay: Anticancer human tumor 885512-296-R-J2-PDC cell line growth inhibition [GQUAD]; settings: curve of first compound; second compound 10 µM;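 further: spheroids exposed to the compounds for one week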
pIC50: −log10 of the molar value.
OBSERVATION_TYPE: pIC50

Before answering, review these 8 worked examples.
COMPOUND: C#Cc1c(F)ccc2cc(O)cc(-c3ncc4c(N5CC6CCC(C5)N6)nc(OCC56CCCN5CC(F)C6)nc4c3F)c12 (stereo not given) + Cc1[nH]c2ccc(F)cc2c1-c1nc2c3cccnc3c3ncccc3c2[nH]1
pIC50: > 7.50
--
COMPOUND: O=C(NO)c1cnc(N2CCN(S(=O)(=O)c3ccc4ccccc4c3)CC2)nc1 + Cc1cnc(CNC(=O)c2c(=O)c3ccc(N4CCCN(C)CC4)nc3n3c2sc2ccccc23)cn1
pIC50: > 7.50
--
COMPOUND: C=CCn1c(=O)c2cnc(Nc3ccc(N4CCN(C)CC4)cc3)nc2n1-c1cccc(C(C)(C)O)n1 + Cc1cnc(CNC(=O)c2c(=O)c3ccc(N4CCCN(C)CC4)nc3n3c2sc2ccccc23)cn1
pIC50: > 7.50
--
COMPOUND: COc1ncnc(C2CC2)c1-c1ncc2cnn(Cc3ccc(-c4nc(C(F)(F)F)cn4C(C)C)cc3)c2n1 + Cc1[nH]c2ccc(F)cc2c1-c1nc2c3cccnc3c3ncccc3c2[nH]1
pIC50: > 7.50
--
COMPOUND: CCc1c2c(nc3ccc(O)cc13)-c1cc3c(c(=O)n1C2)COC(=O)[C@]3(O)CC + CN(C)c1ccc(Nc2c3ccc(NC(=O)CCN4CCCC4)cc3nc3cc(NC(=O)CCN4CCCC4)ccc23)cc1
pIC50: > 9.00
--
COMPOUND: CC(C)(O)C1CCC(Nc2ccc3ncc(-c4cccc(C(F)(F)F)c4)n3n2)CC1 (stereo not given) + CN(C)c1ccc(Nc2c3ccc(NC(=O)CCN4CCCC4)cc3nc3cc(NC(=O)CCN4CCCC4)ccc23)cc1
pIC50: > 7.50
--
COMPOUND: Cn1ncnc1[C@H]1c2n[nH]c(=O)c3cc(F)cc(c23)N[C@@H]1c1ccc(F)cc1 + CN(C)c1ccc(Nc2c3ccc(NC(=O)CCN4CCCC4)cc3nc3cc(NC(=O)CCN4CCCC4)ccc23)cc1
pIC50: > 9.00
--
COMPOUND: CCCS(=O)(=O)Nc1ccc(F)c(C(=O)c2c[nH]c3ncc(-c4ccc(Cl)cc4)cc23)c1F + CN(C)c1ccc(Nc2c3ccc(NC(=O)CCN4CCCC4)cc3nc3cc(NC(=O)CCN4CCCC4)ccc23)cc1
pIC50: > 7.50

Query: Any idea what pIC50 was measured for COc1ccc([C@@H](O)c2cc(-c3ncnc4cc(N5CCOCC5)ccc34)c(F)cc2Cl)nn1 + Cc1cnc(CNC(=O)c2c(=O)c3ccc(N4CCCN(C)CC4)nc3n3c2sc2ccccc23)cn1 ?
Result: > 7.50

Query: Any idea what pIC50 was measured for C=CCn1c(=O)c2cnc(Nc3ccc(N4CCN(C)CC4)cc3)nc2n1-c1cccc(C(C)(C)O)n1 + Cc1[nH]c2ccc(F)cc2c1-c1nc2c3cccnc3c3ncccc3c2[nH]1 ?
Result: > 7.50
